test system: human breast cancer cell line (MCF-7); assay: MTT anti-proliferative assay, MCF-7; assay type: cell-based; conditions: read-out: MCF-7 IC50; MTT, 48-hour treatment, mean ± SD (n = 2)
pIC50: −log10 of the molar value.
MEASURED_ENDPOINT: pIC50

FC(F)(F)c1c(-c2ccc(Cl)cc2)noc1-c1cccs1 = 4.69

[I] O=[N+]([O-])c1ccc(-c2noc(-c3cccs3)c2C(F)(F)F)cc1
[II] COc1ccc(-c2noc(-c3cccs3)c2C(F)(F)F)cc1OC
Of I and II , whose reported pIC50 is numerically smaller? In your reply, give the label of the chosen option.
I

====

system: human breast cancer cell line (MCF-7); assay: MTT anti-proliferative assay, MCF-7; type: cell-based; conditions: read-out: MCF-7 IC50; MTT, 48-hour treatment, mean ± SD (n = 2)
MEASURED_ENDPOINT: IC50 (µM)

Known IC50 results, listed for orientation:
COc1ccc(-c2noc(-c3cccs3)c2C(F)(F)F)cc1 [TTI-3] = 21.5
COc1cc(-c2noc(-c3cccs3)c2C(F)(F)F)cc(OC)c1OC [TTI-6] = 1.91

[A] COc1ccc(-c2noc(-c3cccs3)c2C(F)F)cc1OC [TTI-14]
[B] FC(F)(F)c1ccc(-c2noc(-c3cccs3)c2C(F)(F)F)cc1 [TTI-11]
Look at A and B . Which one has the lower recorded IC50 number? Give the chosen item's label as your response.
A
